Cited source for all entries: patent US9763445B2

System: spring wheat (TRZAS)
experiment: Postemergence greenhouse trial, % visual injury on spring wheat
Type: in vivo, Triticum aestivum
reported.conditions: TRZAS; compound 70 g/ha, CQC-m 0
reported.metric: % visual injury, Ob (%)
Could you give me the number in %? Just the number is fine.

(Q) What measured % visual injury, Ob goes with `CCCCOC(=O)c1nc(-c2ccc3cc[nH]c3c2F)c(F)c(N)c1Cl` ?
(A) 60

(Q) Data request, read-out % visual injury, Ob, for `COC(=O)c1nc(-c2ccc3cc[nH]c3c2F)c(F)c(N)c1OC`
(A) 70

(Q) Would you kindly share the measured % visual injury, Ob for `CO/C=N/c1c(F)c(-c2ccc3cc[nH]c3c2F)nc(C(=O)OC)c1Cl` ?
(A) 70

--- query ---
(Q) Could you tell me which % visual injury, Ob is on file for `COC(=O)c1nc(-c2ccc3cc[nH]c3c2F)c(F)c(/N=C/N(C)C)c1Cl` ?
(A) 40
